Test: Half-life was evaluated in water in the absence of light
Assay type: ADME
quantity.kind: half-life

COc1cc(NS(C)(=O)=O)ccc1Nc1c2ccccc2nc2ccccc12	> 14 days

For COc1cc(NS(C)(=O)=O)ccc1Nc1c2ccccc2nc2cc(N=[N+]=[N-])ccc12.Cl , what is its reported half-life?
> 14 days

----------
Experiment: Half-life was evaluated in water in the presence of light
Format: ADME
quantity.kind: half-life (h)

(P) COc1cc(NS(C)(=O)=O)ccc1Nc1c2ccccc2nc2cc(N=[N+]=[N-])ccc12.Cl
(Q) COc1cc(NS(C)(=O)=O)ccc1Nc1c2ccccc2nc2ccccc12
Of P and Q , whose reported half-life is numerically smaller? // respond with label for picked entry
P
(P: 0.0336 h, Q: 24 h)
